Attribution: patent US20050239656A1

Reported Growth controlling degree (%) Rice values are given for each entry in this list.
tested on: rice (var. Nihonbare); assay: Test Example 3: paddy pot test, transplanted rice; format: in vivo, Oryza sativa L.; conditions: active ingredient 500 g/ha, applied 4th day after transplantation, visually observed 21st day after application, 0 = non-treated, 100 = complete kill
I'd appreciate it if you included the unit after the number.

Below, each entry is followed by its recorded Growth controlling degree (%) Rice result.
| COMPOUND | PROPERTY MEASURED | REPORTED MEASUREMENT |
| --- | --- | --- |
| CC(C)C(c1cnccc1C(F)(F)F)N(C)C(=O)Cc1cccc(F)c1F (centres unmarked) | Growth controlling degree (%) Rice | 35% |
| CC(C)C(c1cnccc1C(F)(F)F)N(C)C(=O)Cc1ccccc1F (centres unmarked) | Growth controlling degree (%) Rice | 30% |
| CC(C)C(NC(=O)Cc1ccc(C(F)(F)F)cc1)c1cnccc1C(F)(F)F (centres unmarked) | Growth controlling degree (%) Rice | 20% |
| CC(C)C(c1cnccc1C(F)(F)F)N(C)C(=O)CC1Cc2ccccc2C1 (centres unmarked) | Growth controlling degree (%) Rice | 20% |
| CC(C(=O)NC(c1cnccc1C(F)(F)F)C(C)C)c1ccccc1 (centres unmarked) | Growth controlling degree (%) Rice | 10% |
| Cc1ccc(C=CC(=O)N(C)C(c2cnccc2C(F)(F)F)C(C)C)cc1 (centres unmarked) | Growth controlling degree (%) Rice | 10% |

(Q) Which measured Growth controlling degree (%) Rice value corresponds to CN(C(=O)Cc1ccccc1)C(c1cnccc1C(F)(F)F)c1cccc2ccccc12 (centres unmarked) ?
(A) 10%

---

system: velvetleaf; assay: Test Example 1: foliage treatment, upland pot test; assay type: in vivo, Abutilon theophrasti MEDIC.; settings: active ingredient 500 g/ha, observed 18th to 23rd day, 0 = non-treated, 100 = complete kill
The following compounds are listed with their measured Growth controlling degree (%) Velvetleaf values.
Write the value in % as a bare number.

Study these solved cases before continuing.
| COMPOUND | TARGET OF ASSAY | Growth controlling degree (%) Velvetleaf |
| --- | --- | --- |
| CC(C(=O)N(C)C(c1cnccc1C(F)(F)F)C(C)C)c1ccccc1 (centres unmarked) [I-12] | velvetleaf | 80 |
| CC(C)C(c1cnccc1C(F)(F)F)N(C)C(=O)Cc1cccs1 (centres unmarked) [I-258] | velvetleaf | 90 |
| CC(C)CC(=O)N(C)C(c1cnccc1C(F)(F)F)C(C)C (centres unmarked) [I-193] | velvetleaf | 60 |
| CC(C)C(c1cnccc1C(F)(F)F)N(C)S(=O)(=O)c1ccc(F)cc1 (racemic) [I-124] | velvetleaf | 70 |

Below: the item to evaluate.
(Q) Give the measured Growth controlling degree (%) Velvetleaf of CON=Cc1ccc(CC(=O)N(C)C(c2cnccc2C(F)(F)F)C(C)C)cc1 (racemic) [I-122] .
(A) 70

---

tested on: velvetleaf; test: Test Example 2: soil surface treatment, upland pot test; format: in vivo, Abutilon theophrasti MEDIC.; settings: active ingredient 500 g/ha, observed 20th to 28th day
Label rule, in plain words: Growth controlling degree (%) Velvetleaf of 50% and up is criterion met, under 50% is criterion not met.

(Q) Say whether CC(C)C(c1cnccc1C(F)(F)F)N(C)C(=O)CC1Cc2ccccc2C1 (stereo not shown) shows Growth controlling degree (%) Velvetleaf of 50% or more.
(A) criterion not met

(Q) I'd appreciate it if you could say whether CCN(C(=O)Cc1ccc(C)cc1)C(c1cnccc1C(F)(F)F)C(C)C (stereo not shown) has Growth controlling degree (%) Velvetleaf at least equal to 50%.
(A) criterion not met

(Q) Assess whether reported Growth controlling degree (%) Velvetleaf for CC(C)C(c1cnccc1C(F)(F)F)N(C)C(=O)Cc1ccc(F)cc1F (stereo not shown) sits at 50% or higher.
(A) criterion met

(Q) Does Growth controlling degree (%) Velvetleaf meet or surpass 50% for CC(C)C(c1cnccc1C(F)(F)F)N(C)C(=O)Cc1c(F)cccc1Cl (stereo not shown) ?
(A) criterion met

(Q) Evaluate CC(C)C(c1cnccc1Cl)N(C)C(=O)Cc1ccccc1 (stereo not shown) : Growth controlling degree (%) Velvetleaf at minimum 50%?
(A) criterion met

(Q) Textbook exercise: given the entry Cc1ccc(OCC(=O)N(C)C(c2cnccc2C(F)(F)F)C(C)C)cc1 (stereo not shown) , state whether its Growth controlling degree (%) Velvetleaf is greater than or equal to 50%.
(A) criterion not met
